assayProcedure: Visible light transmittance of chloroform solution
Format: physicochemical
assaySetup: spectrum converted to transmittance 10% at near-infrared maximum absorption wavelength
resultType: Transmittance (%) 610 nm

{"molecule": "COCCCCc1ccc(CCCCOC)c2c1-c1nc-2nc2[n-]c(nc3nc(nc4[n-]c(n1)c1c(CCCCOC)ccc(CCCCOC)c41)-c1c(CCCCOC)ccc(CCCCOC)c1-3)c1c(CCCCOC)ccc(CCCCOC)c21.[Cu+2]", "measured": 88.3}
{"molecule": "COCCCCc1ccc(CCCCOC)c2c1-c1nc-2nc2[n-]c(nc3nc(nc4[n-]c(n1)c1c(CCCCOC)ccc(CCCCOC)c41)-c1c(CCCCOC)ccc(CCCCOC)c1-3)c1c(CCCCOC)ccc(CCCCOC)c21.[O]=[V+2]", "measured": 88.4}
{"molecule": "CCOCCCCc1ccc(CCCCOCC)c2c1-c1nc-2nc2[n-]c(nc3nc(nc4[n-]c(n1)c1c(CCCCOCC)ccc(CCCCOCC)c41)-c1c(CCCCOCC)ccc(CCCCOCC)c1-3)c1c(CCCCOCC)ccc(CCCCOCC)c21.[O]=[V+2]", "measured": 88.3}
{"molecule": "COCCCCCCCCc1ccc(CCCCCCCCOC)c2c1-c1nc-2nc2[n-]c(nc3nc(nc4[n-]c(n1)c1c(CCCCCCCCOC)ccc(CCCCCCCCOC)c41)-c1c(CCCCCCCCOC)ccc(CCCCCCCCOC)c1-3)c1c(CCCCCCCCOC)ccc(CCCCCCCCOC)c21.[O]=[V+2] [Comparative Example Compound (b), reference compound]", "measured": 87.9}
{"molecule": "COc1cccc(OC)c1OCCCCc1ccc(CCCCOc2c(OC)cccc2OC)c2c1-c1nc-2nc2[n-]c(nc3nc(nc4[n-]c(n1)c1c(CCCCOc5c(OC)cccc5OC)ccc(CCCCOc5c(OC)cccc5OC)c41)-c1c(CCCCOc4c(OC)cccc4OC)ccc(CCCCOc4c(OC)cccc4OC)c1-3)c1c(CCCCOc3c(OC)cccc3OC)ccc(CCCCOc3c(OC)cccc3OC)c21.[Cu+2]", "measured": 89.5}
{"molecule": "[O]=[V+2].c1ccc(OCCCCc2ccc(CCCCOc3ccccc3)c3c2-c2nc-3nc3[n-]c(nc4nc(nc5[n-]c(n2)c2c(CCCCOc6ccccc6)ccc(CCCCOc6ccccc6)c52)-c2c(CCCCOc5ccccc5)ccc(CCCCOc5ccccc5)c2-4)c2c(CCCCOc4ccccc4)ccc(CCCCOc4ccccc4)c32)cc1", "measured": 88.1}
{"molecule": "COCc1ccc(COC)c2c1-c1nc-2nc2[n-]c(nc3nc(nc4[n-]c(n1)c1c(COC)ccc(COC)c41)-c1c(COC)ccc(COC)c1-3)c1c(COC)ccc(COC)c21.[O]=[V+2] [Comparative Example Compound (a), reference compound]", "measured": 86.6}

---

assayProcedure: Tts (total solar transmittance) of heat ray shielding film
Format: physicochemical
assaySetup: heat ray shielding film (5 g compound, 50 g acryl resin LP-45M, 2.5 μm on PET) on 3 mm glass plate; JIS R3106
resultType: Tts (%)

{"smi": "CCOCCCCc1ccc(CCCCOCC)c2c1-c1nc-2nc2[n-]c(nc3nc(nc4[n-]c(n1)c1c(CCCCOCC)ccc(CCCCOCC)c41)-c1c(CCCCOCC)ccc(CCCCOCC)c1-3)c1c(CCCCOCC)ccc(CCCCOCC)c21.[O]=[V+2]", "Tts [%]": 85.8}
{"smi": "CC(C)(C)c1ccc(OCCCCc2ccc(CCCCOc3ccc(C(C)(C)C)cc3)c3c2-c2nc-3nc3[n-]c(nc4nc(nc5[n-]c(n2)c2c(CCCCOc6ccc(C(C)(C)C)cc6)ccc(CCCCOc6ccc(C(C)(C)C)cc6)c52)-c2c(CCCCOc5ccc(C(C)(C)C)cc5)ccc(CCCCOc5ccc(C(C)(C)C)cc5)c2-4)c2c(CCCCOc4ccc(C(C)(C)C)cc4)ccc(CCCCOc4ccc(C(C)(C)C)cc4)c32)cc1.[O]=[V+2]", "Tts [%]": 86}
{"smi": "COCCCCc1ccc(CCCCOC)c2c1-c1nc-2nc2[n-]c(nc3nc(nc4[n-]c(n1)c1c(CCCCOC)ccc(CCCCOC)c41)-c1c(CCCCOC)ccc(CCCCOC)c1-3)c1c(CCCCOC)ccc(CCCCOC)c21.[Cu+2]", "Tts [%]": 86}
